Origin of values: patent US9688764B2

Test system: mfPRLR.mmh (monomeric macaca fascicularis PRLR)
Sequence (as listed by the source): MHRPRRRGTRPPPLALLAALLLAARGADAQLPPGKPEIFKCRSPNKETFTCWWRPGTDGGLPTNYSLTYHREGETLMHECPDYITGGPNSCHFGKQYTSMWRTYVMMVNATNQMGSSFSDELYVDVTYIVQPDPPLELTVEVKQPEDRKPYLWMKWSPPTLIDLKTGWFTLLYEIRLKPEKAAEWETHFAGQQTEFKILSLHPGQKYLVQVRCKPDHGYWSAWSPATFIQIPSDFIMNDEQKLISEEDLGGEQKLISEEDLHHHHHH
test method notes: Surface plasmon resonance (Biacore T200), mAb-capture format
Format: binding
reported conditions: 25° C., antibody-capture format, analyte mfPRLR.mmh
quantity: T½
Returns: string containing the number followed by the unit.

For record H1H6797P: anti-PRLR antibody, human IgG1 Fc; HCVR/LCVR SEQ ID NOs 178/186 (antibody, V domains shown, human IgG1 Fc) VH: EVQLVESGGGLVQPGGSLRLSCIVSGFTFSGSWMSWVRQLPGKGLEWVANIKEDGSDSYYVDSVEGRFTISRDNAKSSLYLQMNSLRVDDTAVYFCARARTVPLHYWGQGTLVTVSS VL: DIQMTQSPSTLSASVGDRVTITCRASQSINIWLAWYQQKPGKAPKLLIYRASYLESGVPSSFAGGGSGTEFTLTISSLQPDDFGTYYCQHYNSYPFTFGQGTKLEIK the listed T½ is 6 min
